# system.under.test: Kir1.1 (Rattus norvegicus)
# Sequence (P35560 whole entry): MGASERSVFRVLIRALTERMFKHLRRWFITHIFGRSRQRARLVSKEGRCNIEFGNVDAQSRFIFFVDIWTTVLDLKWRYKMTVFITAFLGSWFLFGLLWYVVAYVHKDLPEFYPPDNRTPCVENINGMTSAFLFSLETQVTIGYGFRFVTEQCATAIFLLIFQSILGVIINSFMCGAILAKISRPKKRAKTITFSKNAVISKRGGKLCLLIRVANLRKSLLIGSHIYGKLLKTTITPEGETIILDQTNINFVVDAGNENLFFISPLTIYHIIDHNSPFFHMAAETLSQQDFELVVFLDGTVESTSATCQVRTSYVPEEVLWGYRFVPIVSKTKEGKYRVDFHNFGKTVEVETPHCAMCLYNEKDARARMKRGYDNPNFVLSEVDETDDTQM
# assay.explanation: Tl+ flux selectivity assay, Kir1.1
# Format: cell-based
# condition.info: read-out: Kir1.1 (ROMK) IC50 (Tl+ flux)
pIC50: −log10 of the molar value.

{"columns": ["compound", "system.under.test", "pIC50"],
 "data": [
  ["Oc1c(CN2CCC(Cc3ccccc3)CC2)cc(Cl)c2cccnc12 [VU714]", "Kir1.1 (Rattus norvegicus)", 4.80]
]}

----------
# system.under.test: Kir4.1 (Homo sapiens)
# Sequence (P78508 whole entry): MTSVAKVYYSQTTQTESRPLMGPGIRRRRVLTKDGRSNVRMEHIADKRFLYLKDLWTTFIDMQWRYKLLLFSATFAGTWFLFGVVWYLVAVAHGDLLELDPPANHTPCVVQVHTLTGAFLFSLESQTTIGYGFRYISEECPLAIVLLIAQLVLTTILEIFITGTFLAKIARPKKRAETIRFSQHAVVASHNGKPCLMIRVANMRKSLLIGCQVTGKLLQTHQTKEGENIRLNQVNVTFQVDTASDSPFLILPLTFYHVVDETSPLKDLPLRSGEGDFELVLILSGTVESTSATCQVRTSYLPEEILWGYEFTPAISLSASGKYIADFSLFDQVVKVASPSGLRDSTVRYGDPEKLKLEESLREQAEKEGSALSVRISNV
# assay.explanation: Tl+ flux selectivity assay, Kir4.1
# condition.info: read-out: Kir4.1 IC50 (Tl+ flux)

{"columns": ["compound", "IC50 (µM)"],
 "data": [
  ["Oc1c(CN2CCC(Cc3ccccc3)CC2)cc(Cl)c2cccnc12 [VU714]", 13]
]}
